System: MOLT-4 leukemia
Experiment: NCI tumour cell line growth inhibition, 48 h
recorded endpoint: TGI (µM)
Report as a plain number; the unit µM is understood.

Consider the following illustrative entries.
compound	unit spec	TGI
COC(=O)C1(Cc2ccccc2)Cc2cc3c(cc2C1=O)CCC3 (stereo unspecified)	µM	43.1
CCSc1nnc(CSc2nc(-c3ccccc3)c(-c3ccccc3)[nH]2)n1-c1ccccc1	µM	40

Shifting focus to the compound that follows.
Prompt line: Field request: TGI | item: C=C1CCC2C(/C=C(\C)CCC1O)OC(=O)C2C (stereo unspecified)
Response line: 58.2

* * *

Tested on: MDA-MB-231 breast
Assay: NCI tumour cell line growth inhibition, 48 h; in the data active = GI50 below about 0.43 µM; inactive = the rest
A correct response names exactly one class from T for active, F for inactive

compound	class
COc1cc(-n2cc(-c3ccc(Cl)c(Cl)c3)nc2SCc2ccccc2)cc(OC)c1OC	F
N#CC(=C1SCS1)[N+](=O)[O-]	F
CCCCCCCCCCCCCC(=S)NCCCC[C@H](NC(=O)OCc1ccccc1)C(=O)Nc1ccccc1	F
CC1(C)N=C(N)N=C(N)N1c1ccc(CCCCc2ccc(S(=O)(=O)F)cc2)cc1	F

Prompt line: What classification did "CN=C(N)N/N=C(\c1ccccc1)c1ccc(Br)cc1" end up with in this test?
Response line: T

Prompt line: Entry to check: "Cc1nn(-c2ccc(F)cc2)c2ncnc(Nc3ccc(NC(=O)Nc4ccc(Cl)c(C(F)(F)F)c4)cc3)c12"
Response line: F

Prompt line: Entry to check: "Clc1ccccc1C(c1ccccc1)(c1ccccc1)n1ccnc1"
Response line: F

Prompt line: Entry to check: "O=C1/C(=C/c2ccc(F)cc2)CCOc2ccc([N+](=O)[O-])cc21"
Response line: F

Prompt line: Entry to check: C=C1CCC2C(/C=C(\C)CCC1O)OC(=O)C2C (stereo not given)
Response line: F

Prompt line: Entry to check: "CC(C)(C)OC(=O)n1cc(CNC(=S)Nc2ccccc2)c2ccccc21"
Response line: F
